Origin of measurements: patent US11174245B2

targetOrSystem: EGFR (mutated) 695-1022, T790M, C797S, L858R (Homo sapiens (Human), UniProt P00533, C797S/L858R/T790M)
Sequence (P00533 695-1022 T790M/C797S/L858R): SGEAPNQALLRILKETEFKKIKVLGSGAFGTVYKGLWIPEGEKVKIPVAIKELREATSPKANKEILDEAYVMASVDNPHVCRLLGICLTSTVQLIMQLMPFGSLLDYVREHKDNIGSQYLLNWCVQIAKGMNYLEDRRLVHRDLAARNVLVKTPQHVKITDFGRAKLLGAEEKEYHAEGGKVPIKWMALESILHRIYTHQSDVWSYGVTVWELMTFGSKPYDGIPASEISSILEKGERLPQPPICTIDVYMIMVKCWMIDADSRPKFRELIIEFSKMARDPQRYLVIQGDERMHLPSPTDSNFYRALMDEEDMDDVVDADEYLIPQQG
methodNotes: Biochemical EGFR inhibition assay (TR-FRET, poly-GT substrate), EGFR T790M C797S L858R
conditionParameters: read-out: LR_TM_CS (100 μM ATP) IC50; 100 μM ATP
Description: Biochemical EGFR Inhibition Assays Initially, the inhibitory effect of compounds according to the invention is measured in biochemical assays which measure the phosphorylation activity of EGFR enzyme forms on poly-GT substrate in the presence of different concentrations of ATP (5 μM and 100 μM final assay concentration). […] These biochemical EGFR enzyme form compound dose-response assays quantify the kinase activity via phosphorylation of a tagged poly-GT substrate. […]
What pIC50 was measured for each of the following?
// returns pIC50 (minus log10 of molar concentration), number only

stdin: What does the record list as pIC50 for "O=C(/N=c1\[nH]c2ccccc2n1[C@H]1CC[C@@H](O)CC1)c1ccnc(-c2ccccc2)c1" ?
stdout: 7.34

stdin: # repeat for "Cn1cc(-c2cc(C(=O)/N=c3\[nH]c4ccccc4n3[C@H]3CC[C@@H](O)CC3)ccn2)cn1"
stdout: 8.24

stdin: # repeat for "CC(=O)N1CCC(c2ccc3c(c2)[nH]/c(=N\C(=O)c2ccnc(-c4cnn(C)c4C)c2)n3CC(C)(C)O)CC1"
stdout: 7.46

stdin: # repeat for "COc1ccncc1-c1cc(C(=O)/N=c2\[nH]c3ccccc3n2CC(C)(C)O)ccn1"
stdout: 7.92

stdin: # repeat for "CN1CCC(c2ccc3c(c2)[nH]/c(=N\C(=O)c2ccnc(-n4cnc5cccc(F)c54)c2)n3CC(C)(C)O)CC1"
stdout: 7.59

stdin: # repeat for "CN(C)Cc1cccc(-c2cc(C(=O)/N=c3\[nH]c4ccccc4n3CC(C)(C)O)ccn2)c1"
stdout: 7.86

stdin: # repeat for "Cc1ccc2c(c1)[nH]/c(=N\C(=O)c1ccnc(-c3cnn(C)c3)c1)n2CC(C)(C)O"
stdout: 7.04

stdin: # repeat for "COc1ccccc1-c1cc(C(=O)/N=c2\[nH]c3ccccc3n2[C@H]2CC[C@@H](O)CC2)ccn1"
stdout: 7.99

stdin: # repeat for "Cn1cc(-c2cc(C(=O)/N=c3\[nH]c4ccccc4n3CC(C)(C)CO)ccn2)cn1"
stdout: 6.63

stdin: # repeat for "CC(C)Cn1/c(=N/C(=O)c2ccnc(-c3cnn(C)c3)c2)[nH]c2ccccc21"
stdout: 7.19

stdin: # repeat for "Cc1cc(C(=O)/N=c2\[nH]c3ccccc3n2[C@H]2CC[C@@H](O)CC2)cc(-c2cnn(C)c2)n1"
stdout: 6.98
